B1: library; numbered along this chain (parent)
chain: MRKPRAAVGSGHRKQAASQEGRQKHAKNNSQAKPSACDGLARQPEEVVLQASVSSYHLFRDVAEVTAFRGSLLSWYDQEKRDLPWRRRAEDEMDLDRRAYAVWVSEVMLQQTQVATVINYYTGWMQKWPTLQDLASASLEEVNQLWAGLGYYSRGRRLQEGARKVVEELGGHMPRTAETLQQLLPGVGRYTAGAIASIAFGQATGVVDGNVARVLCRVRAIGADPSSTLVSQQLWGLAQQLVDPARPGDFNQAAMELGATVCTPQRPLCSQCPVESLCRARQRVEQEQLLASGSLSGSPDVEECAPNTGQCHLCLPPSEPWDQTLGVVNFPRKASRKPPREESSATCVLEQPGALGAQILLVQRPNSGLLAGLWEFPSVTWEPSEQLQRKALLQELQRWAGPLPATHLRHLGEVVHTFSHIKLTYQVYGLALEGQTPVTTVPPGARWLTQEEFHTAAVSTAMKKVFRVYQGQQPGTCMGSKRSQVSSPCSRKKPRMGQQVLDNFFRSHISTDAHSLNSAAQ

Variants of: B1
Test: 8OG:A repair function score (normalized; synonymous = 0, nonsense = -1) (normalized log-likelihood score); higher = more repair activity (WT-like);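 note: cells sorted at 72 h after reporter transfection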
Settings: with 8OG:A DNA repair reporter (GFP) in HEK-293 MUTYH KO cells
Our labelling divides records by 8OG:A repair function score into ranges: LOW = under -0.6, MEDIUM = from -0.6 up to -0.1, HIGH = -0.1 and over

The entry to classify is E303R ; which class holds it?
HIGH

Assign a bin to T417R
HIGH

Band for S480Y ?
HIGH

Determine which band this variant sits in: R156C
MEDIUM

Could you place H454P in its proper category? Many thanks.
MEDIUM

Lab note: which band did V117Q land in?
LOW

Which bin should I file A456W under?
MEDIUM

Classify this variant: F453N
LOW

Band for C272S ?
LOW

Values compiled from the supplement of paper PMC11908140.
